test system: Calu-3 (Lung Adenocarcinoma); assay: Bliss excess, mean over the matrix (fraction); higher = more synergy;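 note: after 72 h of two-drug dosing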
Entries and their Bliss excess values follow.
Answer with a number only.

For orientation, consider the following solved cases.
[[record]]
compound = "Cc1c2c(nn1C)CSCc1cc(n(C)n1)CSc1cc(c3ccccc3c1)OCCCc1c(C(=O)O)n(C)c3c-2c(Cl)ccc13 [AZD5991] + Cn1cnc2c(F)c(Nc3ccc(Br)cc3Cl)c(C(=O)NOCCO)cc21 [Selumetinib] (first compound max 1 µM, 7x7, partner max 3 µM)"
value_measured = -0.015

[[record]]
compound = "CC(=O)Nc1cccc(-n2c(=O)n(C3CC3)c(=O)c3c(Nc4ccc(I)cc4F)n(C)c(=O)c(C)c32)c1 [Trametinib] + Cc1nc(-c2cn3c(n2)-c2ccc(-c4cnn(C(C)(C)C(N)=O)c4)cc2OCC3)n(C(C)C)n1 [Taselisib] (first compound max 1 µM, 7x7, partner max 10 µM)"
value_measured = 0.162

[[record]]
compound = "CS(=O)(=O)CCNCc1ccc(-c2ccc3ncnc(Nc4ccc(OCc5cccc(F)c5)c(Cl)c4)c3c2)o1 [Lapatinib] + NC1(c2ccc(-c3nc4ccn5c(=O)[nH]nc5c4cc3-c3ccccc3)cc2)CCC1 [MK-2206] (first compound max 10 µM, 7x7, partner max 10 µM)"
value_measured = 0.0123


The value of Bliss excess measured for the compound C[C@@H](Nc1cc(F)cc(F)c1)c1cc(C(=O)N(C)C)cc2c(=O)cc(N3CCOCC3)oc12 [AZD8186] + C1CN(CCC1(C(=O)N[C@@H](CCO)C2=CC=C(C=C2)Cl)N)C3=NC=NC4=C3C=CN4 [AZD5363] (first compound max 10 µM, 7x7, partner max 10 µM) turned out to be 0.0001

Reference for the values: the supplement of paper PMC11061612
